Recorded CC50 values for a group of molecules are listed next.
test-summary: in vitro
run-parameters: African green monkey (Cercopithecus aethiops)

smiles-input: C[n+]1cccc(C(=O)[O-])c1
CC50: ~1 mM

smiles-input: N=C(N)NCCC[C@H](N)C(=O)O
CC50: ~1 mM

smiles-input: NC(=O)C[C@H](N)C(=O)O
CC50: ~1 mM

smiles-input: COc1c2c(cc3c1OCO3)[C@@]13CCN(C2)[C@@H]1CC[C@H](O)[C@@H]3O
CC50: 0.123 mM

smiles-input: N[C@@H](Cc1c[nH]c2ccccc12)C(=O)O
CC50: 0.578 mM
